The origin of these recorded values is ChEMBL document CHEMBL4689842.

Tested on: HEK-293T
Experiment: Incucyte cell viability with HEK293T; further: filed as whole numbers so only -1 and 0 and 1 occur
Type: toxicity, cell-based
Conditions: human, 0 h, 10 µM, compound concentration 10 uM, replicate number 2, timepoint 0 hours
reported_endpoint: Growth Rate
Reply with the value as a number alone.

Q) Which Growth Rate value is on record for "Cc1ccc2nc(NCCN)c3ncc(C)n3c2c1.O=C(O)C(F)(F)F.O=C(O)C(F)(F)F" ?
A) 1

Q) Recorded Growth Rate of "O=C(Nc1ccc(Cl)cc1)Nc1cccc(-c2cccc(N3CCCC3)n2)c1" , please.
A) 0

Q) Which Growth Rate value is on record for "Cl.O=C([C@@H](Cc1cccc(C(F)(F)F)c1)NS(=O)(=O)c1cc(F)c2c(c1)CCNC2)N1CCCC1" ?
A) 1

Q) Query: Growth Rate; subject: CC(C)C[C@H](CO)Nc1nc(S[C@@H](C)c2ccccc2)nc2nc(N)sc12 [AZD-8797]
A) 0

Q) Param item = "CCCS(=O)(=O)c1nc(NC2CC2)cc(-c2ccc3c(ccn3C3CC(C)(C)NC(C)(C)C3)c2)n1" ; retrieve measured Growth Rate.
A) 0

Q) # get_value(readout='Growth Rate', item= CN(C)C(=O)c1cc2cnc(Nc3ccc(N4CCNCC4)cn3)nc2n1C1CCCC1 [RIBOCICLIB] )
A) 1

====

Tested on: U2OS
Assay: Multiplex assay against U2OS
Format: toxicity, cell-based
Conditions: human, 12 h, 1 µM, compound concentration 1 uM, replicate 2
Output t for records whose Population Membrane Permeable-Phenotype (%) is lower than 10%, f for records at or above 10%.

Q) For "Cl.O=C(c1ccc(Nc2nccc(-c3cc4ccccc4s3)n2)cc1)N1CCC(N2CCCC2)CC1" , is the recorded Population Membrane Permeable-Phenotype (%) below the cut-off of 10%?
A) f

Q) Field: below-cutoff. Rule: recorded Population Membrane Permeable-Phenotype (%) strictly less than 10%. Subject: "O=C(Nc1cccnn1)N1CCC(=Cc2cccc(Oc3ccc(C(F)(F)F)cn3)c2)CC1"
A) f

Q) Would you kindly verify if Population Membrane Permeable-Phenotype (%) of CN1C2CCC1CC(OC(c1ccc(F)cc1)c1ccc(F)cc1)C2.Cl (centres undefined) is strictly less than 10%?
A) t

Q) hey, is Population Membrane Permeable-Phenotype (%) for "CCn1c(=O)c(-c2ccc(-c3cncs3)cc2Cl)cc2cnc(Nc3ccc(N4CCN(C)CC4)cc3)nc21" lower than 10% or not?
A) t

Q) Regarding "CCOc1cc(C(=O)N2CCC(N3CCN(C)CC3)CC2)ccc1Nc1ncc2c(n1)N(C1CCCC1)c1ccccc1C(=O)N2C" , kindly confirm whether its Population Membrane Permeable-Phenotype (%) is beneath 10%.
A) t

Q) Consider the compound "CCn1cc(-c2ccnc3[nH]c(-c4cccc(CN(C)C)c4)cc23)c(-c2ccc(NC(=O)N(C)C)cc2)n1" . Is its Population Membrane Permeable-Phenotype (%) strictly less than 10%?
A) f

Q) Population Membrane Permeable-Phenotype (%) strictly < 10% for this compound? "CCN1CCN(c2ccc(Nc3cc(N(C)C(=O)Nc4c(Cl)c(OC)cc(OC)c4Cl)ncn3)cc2)CC1"
A) f

Q) Population Membrane Permeable-Phenotype (%) strictly < 10% for this compound? "NC(=O)c1cccc(-c2cc(Nc3ccc(OC(F)(F)F)cc3)ncn2)c1"
A) f

====

Field: Population Healthy Nuclei (%). Provide a value for each of the molecules that follow.
Test system: Fibroblast
Assay: Multiplex assay against human fibroblast
Assay type: toxicity, cell-based
Conditions: 24 h, 10 µM, compound concentration 10 uM, replicate 1
Respond with the figure and its unit, in that order.

Q) # Population Healthy Nuclei (%) lookup, item "CCc1cccc(CC)c1NC(=O)c1nn(C)c2c1CCc1cnc(Nc3ccc(C(=O)NC4CCN(C)CC4)cc3OC(F)(F)F)nc1-2"
A) 49%

Q) Name the recorded Population Healthy Nuclei (%) for "O=C1NC(=O)C(c2cnc3ccccn23)=C1c1cn2c3c(cc(F)cc13)CN(C(=O)N1CCCCC1)CC2" .
A) 34%

Q) For COc1cc2ncnc(Nc3ccc(F)c(Cl)c3)c2cc1NC(=O)/C=C/CN1CCCCC1 [DACOMITINIB ANHYDROUS] , what is its reported Population Healthy Nuclei (%)?
A) 50%

Q) Can you look up the measured Population Healthy Nuclei (%) of "O=C(Nc1ccc(-c2ccnc(Nc3ccc(N4CCOCC4)cc3)n2)cc1)[C@@H]1CCCN1" for me?
A) 48%

Q) Quick one: Population Healthy Nuclei (%) of "CCOc1cc2ncc(C#N)c(Nc3ccc(OCc4ccccn4)c(Cl)c3)c2cc1NC(=O)/C=C/CN(C)C" ?
A) 48%

====

I'd appreciate it if you could supply Population Mitotic Cells (%) values for the items below.
Test system: HEK-293T
Assay: Multiplex assay against HEK293T
Type: toxicity, cell-based
Details: human, 12 h, 1 µM, compound concentration 1 uM, replicate 1
A number alone suffices; assume %.

Q) Reported Population Mitotic Cells (%) for CN1CCC(=C2c3ccccc3CC(=O)c3sccc32)CC1.O=C(O)/C=C/C(=O)O [KETOTIFEN FUMARATE] : what is it?
A) 53

Q) Would you mind telling me what Population Mitotic Cells (%) value was observed for CN(C)C(=O)C(CCN1CCC(O)(c2ccc(Cl)cc2)CC1)(c1ccccc1)c1ccccc1.Cl [LOPERAMIDE HYDROCHLORIDE] ?
A) 29

Q) Please report the recorded Population Mitotic Cells (%) for "CCN1CCN(Cc2ccc(Nc3ncc(F)c(-c4cc(F)c5nc(C)n(C(C)C)c5c4)n3)nc2)CC1.CS(=O)(=O)O" .
A) 40

Q) Would you kindly share the measured Population Mitotic Cells (%) for "Cc1cc(C)c(S(=O)(=O)N(Cc2ccc(-c3cccc(S(C)(=O)=O)c3)cc2)Cc2ccc(C(F)(F)F)o2)c(C)c1" ?
A) 52

Q) Can you look up the measured Population Mitotic Cells (%) of "COc1cc(N2CCN(C)CC2)ccc1Nc1ncc2c(n1)N(C)c1ccccc1C(=O)N2C" for me?
A) 53

Q) Report Population Mitotic Cells (%) for "COc1ccc(-c2ccc3c(N4CCOCC4)nc(N4C[C@@H](C)O[C@@H](C)C4)nc3n2)cc1CO" please.
A) 82

Q) Quick one: Population Mitotic Cells (%) for "CCCn1c(=O)c2[nH]c(-c3cnn(Cc4cccc(C(F)(F)F)c4)c3)nc2n(CC)c1=O" ?
A) 51

Q) Entry "CCCS(=O)(=O)Nc1ccc(F)c(C(=O)c2c[nH]c3ncc(Cl)cc23)c1F" : reported Population Mitotic Cells (%) = ?
A) 86

Q) Form field: reported Population Mitotic Cells (%) of "CCOc1cc(C(=O)N2CCC(N3CCN(C)CC3)CC2)ccc1Nc1ncc2c(n1)N(C1CCCC1)c1ccccc1C(=O)N2C"
A) 38

Q) Entry "COC(=N)c1nc2ccc3ncnc(Nc4ccc(OC)cc4F)c3c2s1" : reported Population Mitotic Cells (%) = ?
A) 84

Q) Can you look up the measured Population Mitotic Cells (%) of "Cl.O=C(c1ccc(Nc2nccc(-c3cc4ccccc4s3)n2)cc1)N1CCC(N2CCCC2)CC1" for me?
A) 71

Q) Report Population Mitotic Cells (%) for "CN1CCN(C(=O)C(C)(C)c2ccc(C(=O)Nc3cn4cc(-c5cc(C(C)(C)C)cc(C(C)(C)C)c5)ccc4n3)cc2)CC1" please.
A) 85

Q) # get_value(readout='Population Mitotic Cells (%)', item= CCOC(=O)c1c(C)[nH]c2ccc3c(c12)CN1CCc2cc(OC)ccc2C1O3 (configuration not stated) )
A) 38

Q) Given "Cc1ccc2nc(NCCN)c3ncc(C)n3c2c1.O=C(O)C(F)(F)F.O=C(O)C(F)(F)F" , state its recorded Population Mitotic Cells (%).
A) 70

Q) Suppose we examine the molecule "Cl.Oc1ccc2c3c1O[C@H]1c4[nH]c5c(c4C[C@@]4(O)[C@@H](C2)N(CC2CC2)CC[C@]314)C[C@@]1(O)[C@H]2Cc3ccc(O)c4c3[C@@]1(CCN2CC1CC1)[C@H]5O4" ; what Population Mitotic Cells (%) value has been reported?
A) 52

Q) Need Population Mitotic Cells (%), item "O=C1N/C(=N/c2ccccc2F)S/C1=C\c1ccc(C(=O)O)cc1"
A) 68

Q) # input molecule: "Cl.O=c1c2cccn2c2ccccc2n1CCCN1CCC(c2ccc(Cl)cc2)CC1" ; wanted: its Population Mitotic Cells (%)
A) 42

====

Tested on: Fibroblast
Experiment: Multiplex assay against human fibroblast
Type: toxicity, cell-based
Conditions: 48 h, 10 µM, compound concentration 10 uM, replicate 2
reported_endpoint: Population Mitochondria Different-Phenotype (%)
Your answer should be a plain number; it is taken to be in %.

Q) Look at this compound and give its reported Population Mitochondria Different-Phenotype (%). "COCC(=O)NC/C=C/c1ccc2ncnc(Nc3ccc(Oc4ccc(C)nc4)c(C)c3)c2c1"
A) 34

Q) Give its Population Mitochondria Different-Phenotype (%) value. Item: "Cl.O=c1c2cccn2c2ccccc2n1CCCN1CCC(c2ccc(Cl)cc2)CC1"
A) 48

Q) GET /values?readout=Population Mitochondria Different-Phenotype (%)&item= "CCOc1cc2ncc(C#N)c(Nc3ccc(OCc4ccccn4)c(Cl)c3)c2cc1NC(=O)/C=C/CN(C)C"
A) 1

Q) Need Population Mitochondria Different-Phenotype (%) of CN1C2CCC1CC(OC(c1ccc(F)cc1)c1ccc(F)cc1)C2.Cl (configuration not stated) , thanks.
A) 18

Q) Consider the compound "CCCn1c(=O)c2[nH]c(-c3cnn(Cc4cccc(C(F)(F)F)c4)c3)nc2n(CC)c1=O" and give its measured Population Mitochondria Different-Phenotype (%).
A) 1

Q) # get_value(readout='Population Mitochondria Different-Phenotype (%)', item= "CN1CCN(C(=O)C(C)(C)c2ccc(C(=O)Nc3cn4cc(-c5ccncc5)ccc4n3)cc2)CC1" )
A) 15

Q) // query Population Mitochondria Different-Phenotype (%) value for entry "Cc1ccc(C(=O)Nc2cccc(C(F)(F)F)c2)cc1Nc1nc(-c2cccnc2)nc2c1cnn2C"
A) 64
